Test system: methicillin-susceptible Staphylococcus aureus (MSSA)
Test: Antibacterial assay (Test C), broth microdilution MIC against MSSA
Assay type: cell-based
Details: Staphylococcus aureus, MSSA, minimal inhibitory concentration, broth microdilution, growth completely inhibited; read-out: MSSA MIC data
PARAMETER: MIC (µg/mL)

>>> print(df.to_string())
                                item_smiles  parameter  experimental_result
0      CC(C)(C)c1ccc(-c2csc(CNC(=N)N)n2)cc1        MIC                    4
1  CC(C)(C)c1ccc(-c2ccc3sc(CNC(=N)N)nc3c2)cc1        MIC                    4
2  CC(=O)Nc1cc(Cn2ccnc2)cc(-c2ccc(C(C)(C)C)cc2)c1        MIC                   16
3       CN(C)Cc1ccc(-c2ccc(C(C)(C)C)cc2)cc1        MIC                   16
4          CC(C)(C)c1ccc(-c2cccc(CCN)c2)cc1        MIC                   16
5            CC(C)(C)c1ccc(-c2ccccc2CCN)cc1        MIC                   32

The values you see were collected from patent US20150011559A1.
